Recorded values, source paper doi:10.1101/2020.02.27.968578.

biological target: EGFP (UniProt P42212); assay: GFP fluorescence quenching titration; conditions: PBS, 5 mM MgCl2, pH 7.4, room temperature, 5 min; 50 nM GFP, excitation 480 nm
PROPERTY_MEASURED: Kd (nM)

| SEQUENCE_CHAIN | READOUT_VALUE |
| --- | --- |
| GGGAGCUUCUGGACUGCGAUGGGAGCACGAAACGUCGUGGCGCAAUUGGGUGGGGAAAGUCCUUAAAAGAGGGCCACCACAGAAGC [AP3 (GFP aptamer)] | 4 |
